Test: Drug level in rat brain at 30 mg/kg, po measured at 30 mins post dose
Assay type: ADME, organism-based
Set-up: dose 30 mg/kg, route oral
Settings: read-out: Drug uptake
measure_name: concentration at 0.5 h (µM)
State the answer as a number, implicitly in µM.

Exam item: Param item = Nc1nccc(/C=C/c2ccccc2)n1 ; retrieve measured concentration at 0.5 h.
Marked response: 33.8

###

Assay: Permeability from basolateral to apical side of human Caco-2 cells
Assay type: ADME, cell-based
Settings: read-out: permeability
measure_name: Papp B→A (×10⁻⁶ cm/s)
State the answer as a number, implicitly in ×10⁻⁶ cm/s.

Exam item: Param item = Nc1nccc(/C=C/c2ccccc2)n1 ; retrieve measured Papp B→A.
Marked response: 19.6
